- target: T1, Recombinant Human DLL4 (R&D Systems Cat#1506-D4/CF) (human, UniProt Q9NR61 27-524)
- T1 construct: Bought recombinant protein; also called delta-like protein 4; Delta-like 4
- assay_procedure: ELISA, DLL4 coated on plate, Fab at 6.67 nM
quantity_name: ELISA signal
Give bare numbers.

Return reported ELISA signal. Input binder: Fab VH5-51_IGHD5-18*01>3_IGHJ4*01 G100K/G104T (H:KT) & V3-4_IGLJ1*01 M94R/S96M (L:RM) (Fab, V domains shown, Fab expressed in E. coli; Plasmid A adds CH1 with His6 and Flag tags to the heavy chain; Plasmid E adds lambda CL to the light chain; also called H:KT & L:RM; G100K/G104T & M94R/S96M) VH: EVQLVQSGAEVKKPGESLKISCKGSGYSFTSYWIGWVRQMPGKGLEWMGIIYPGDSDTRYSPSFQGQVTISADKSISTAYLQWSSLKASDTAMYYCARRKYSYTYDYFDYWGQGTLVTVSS VL: QTVVTQEPSFSVSPGGTVTLTCGLSSGSVSTSYYPSWYQQTPGQAPRTLIYSTNTRSSGVPDRFSGSILGNKAALTITGAQADDESDYYCVLYRGMGISYVFGTGTKVTVL 0.023
